The reported numbers originate from patent US9328138B2.

System: HCV genotype 1b (BK) NS3 modified enzyme with a R155K mutation (Hepatitis C virus genotype 1b, UniProt P26663, R1181K)
Construct: HCV genotype 1b (BK) NS3 modified enzyme
Protocol details: HCV NS3 protease time-resolved fluorescence (TRF) assay, genotype 1b R155K
Type: biochemical
Measurement parameters: Ki 1b R155K, first of two values printed in the cell (not explained)
Structures can show the parent of a compound that is named as a salt.
With a cut-off of 0.02 nM, any Ki strictly below it is called T; any Ki meeting it or above is called F.

As a guide, the following entries are already answered.
[
  {
    "Molecule": "C=C[C@@H]1C[C@]1(NC(=O)[C@@H]1C[C@@H]2CN1C(=O)[C@H](C(C)(C)C)NC(=O)O[C@@H]1C[C@H]1CCCCCc1c(nc3ccccc3c1OC1C3COCC1CN(CC1CC1)C3)O2)C(=O)NS(=O)(=O)C1(C)CC1 (stereo partly shown) [Example 256, formate]",
    "Answer label": "F"
  },
  {
    "Molecule": "C=C[C@@H]1C[C@]1(NC(=O)[C@@H]1C[C@@H]2CN1C(=O)[C@H](C(C)(C)C)NC(=O)O[C@@H]1C[C@H]1CCCCCc1c(nc3ccccc3c1OC1CC3CCC(C1)N3CC(F)(F)F)O2)C(=O)NS(=O)(=O)C1(C)CC1 (stereo partly shown) [Example 275]",
    "Answer label": "F"
  },
  {
    "Molecule": "C=C[C@@H]1C[C@]1(NC(=O)[C@@H]1C[C@@H]2CN1C(=O)[C@H](C1CCCCC1)NC(=O)O[C@@H]1C[C@H]1CCCCCc1c(nc3ccccc3c1OCCCNC1CCC1)O2)C(=O)NS(=O)(=O)C1(C)CC1 [Example 242, formate]",
    "Answer label": "T"
  },
  {
    "Molecule": "C=C[C@@H]1CC1(NC(=O)[C@@H]1C[C@@H]2CN1C(=O)[C@H](C1CCCCC1)NC(=O)O[C@@H]1C[C@H]1CCCCCc1c(nc3ccccc3c1OCCCN1CC(F)C1)O2)C(=O)NS(=O)(=O)C1(C)CC1 (stereo partly shown) [Example 250]",
    "Answer label": "F"
  },
  {
    "Molecule": "C=C[C@@H]1C[C@]1(NC(=O)[C@@H]1C[C@@H]2CN1C(=O)[C@H](C1CCCCC1)NC(=O)O[C@@H]1C[C@H]1CCCCCc1c(nc3ccccc3c1OC1CC3COCC(C1)N3C(=O)OC(C)(C)C)O2)C(=O)NS(=O)(=O)C1(C)CC1 (stereo partly shown) [Example 287]",
    "Answer label": "F"
  },
  {
    "Molecule": "C=C[C@@H]1C[C@]1(NC(=O)[C@@H]1C[C@@H]2CN1C(=O)[C@H](C1Cc3ccccc3C1)NC(=O)O[C@@H]1C[C@H]1CCCCCc1c(nc3ccccc3c1OCCCN(C)C)O2)C(=O)NS(=O)(=O)C1(C)CC1 [Example 233]",
    "Answer label": "T"
  },
  {
    "Molecule": "C=C[C@@H]1C[C@]1(NC(=O)[C@@H]1C[C@@H]2CN1C(=O)[C@H](C1(C)CCCCC1)NC(=O)O[C@@H]1C[C@H]1CCCCCc1c(nc3ccccc3c1OC1CCNCC1)O2)C(=O)NS(=O)(=O)C1(C)CC1 [Example 268]",
    "Answer label": "T"
  },
  {
    "Molecule": "C=C[C@@H]1C[C@]1(NC(=O)[C@@H]1C[C@@H]2CN1C(=O)[C@H](C1CCCCC1)NC(=O)O[C@@H]1C[C@H]1CCCCCc1c(nc3ccccc3c1OC1CC3COCC(C1)N3CCOC)O2)C(=O)NS(=O)(=O)C1(C)CC1 (stereo partly shown) [Example 289]",
    "Answer label": "F"
  }
]

Strictly below 0.02 nM: is that where Ki of C=C[C@@H]1C[C@]1(NC(=O)[C@@H]1C[C@@H]2CN1C(=O)[C@H](C1CCCCC1)NC(=O)O[C@@H]1C[C@H]1CCCCCc1c(nc3ccccc3c1OC1CCN(CC)CC1)O2)C(=O)NS(=O)(=O)C1(C)CC1 [Example 239, formate] sits?
T

Another molecule to look at: C=C[C@@H]1C[C@]1(NC(=O)[C@@H]1C[C@@H]2CN1C(=O)[C@H](C1CCCCC1)NC(=O)O[C@@H]1C[C@H]1CCCCCc1c(nc3ccccc3c1OCCCNC1CC(F)(F)C1)O2)C(=O)NS(=O)(=O)C1(C)CC1 [Example 243]
F
